pKi: −log10 of the molar value.
Heads up, these substances all have pKi values measured for VIP peptides (Homo sapiens).
ENDPOINT: pKi

{"SUBSTANCE": "H-HSDAVFTDSYTRYRKQMAVKKYLNSILN-NH2 [[Ser9,Tyr13]VIP]", "ENDPOINT": "pKi", "RECORDED_RESULT": 7.82}
{"SUBSTANCE": "H-HSDGIFTDSYTRLRKQMAVKKYLNSILN-OH [PACAP-VIP]", "ENDPOINT": "pKi", "RECORDED_RESULT": 8.10}

[A] H-HSDAVFTDNYTRLRKQMAVKKYLAAVL-NH2 [VIP-PACAP]
[B] H-HSDAVFTDNYTRYRKQMAVKKYLNSILN-OH [[Tyr13]VIP]
Asked: Which record would sort first by descending pKi, A or B ? To answer, give the label that identifies your chosen option.
Given back: B
